test: folding enthalpy; higher = less favourable; fluorescence melt of hairpins on a sequencing array, two-state fit; settings: sodium 0.088 M
folding enthalpy for assorted sequences
The reply should be a number in kcal/mol, with the unit left off.

CGCAAGAAATTGCG (((((....)))))    -29.6
GTATAGGCGAAAGCCTAC (((..(((....))))))    -8.12
GATCCGTACGCGGATC ((((((....))))))    -39.5
GGTACAGGAAACTGTGTC (..((((....))))..)    -17.6

# lookup: folding enthalpy of GCCCTAGCGAAAGCTGGC (((..(((....)))))) -13.7

folding enthalpy for GTCCTCGAAAGAGGAGAC ((((((....)))..))) ? -10.2

Would you kindly share the measured folding enthalpy for AACCTGAAAAGGTT (((((....))))) ? -20

# input sequence: GCCACCGGAAACGATGGC ((((.((....)).)))) ; wanted: its folding enthalpy -44

What folding enthalpy value was documented for this sequence, GGTCAAGGAAACTTGGCC ((.((((....)))).)) ? -38.1

What folding enthalpy value was documented for this sequence, CGCTAACGGAAACGTGCG (((..(((....)))))) ? -28.9

Requested field: folding enthalpy. Item: GCCGGCGAAAGCCCAGGC ((((((....)))..))) -19.4
